- Test System: S1P3 (Homo sapiens, UniProt Q99500)
- Sequence (Q99500 whole entry, species assumed): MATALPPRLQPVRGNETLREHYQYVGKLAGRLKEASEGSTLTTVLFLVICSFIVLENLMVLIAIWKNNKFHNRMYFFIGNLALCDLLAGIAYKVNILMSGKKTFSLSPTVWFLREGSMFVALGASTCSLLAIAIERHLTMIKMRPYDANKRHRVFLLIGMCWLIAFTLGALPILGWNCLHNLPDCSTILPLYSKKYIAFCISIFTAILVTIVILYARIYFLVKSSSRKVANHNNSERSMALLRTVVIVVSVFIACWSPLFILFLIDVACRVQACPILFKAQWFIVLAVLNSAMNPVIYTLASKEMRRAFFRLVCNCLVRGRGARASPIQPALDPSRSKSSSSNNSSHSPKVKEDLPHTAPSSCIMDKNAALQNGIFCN
- Method: Receptor binding assay, [33P]sphingosine 1-phosphate competition, S1P3 membranes, WGA SPA beads
- Measurement Conditions: 384 well-plate; read-out: S1P3 binding Ki (M) (384 well-plate)
Where a name gives a salt, the structure may show the parent alone.
Recorded Metric: log10 Ki (log10 of the value in M)

{"columns": ["Molecule", "log10 Ki"],
 "data": [
  ["COCc1cc(-c2nc(-c3cccc(CN(C)CC(=O)O)c3)no2)ccc1-c1ccc(F)c(F)c1C [Example 42, hydrochloride salt]", -6.56],
  ["COCc1cc(-c2nc(-c3ccc(CN(C)CC(=O)O)cc3)no2)ccc1-c1ccccc1Cl [Example 118, hydrochloride salt]", -6.25],
  ["COCc1cc(-c2nc(-c3cc(F)c(CNCC(=O)O)c(F)c3)no2)ccc1-c1ccccc1C [Example 147, hydrochloride salt]", -6.87],
  ["CCc1cc(-c2noc(-c3ccc(-c4ccccc4C)c(COC)c3)n2)ccc1CN(C)CC(=O)O", -5.39],
  ["Cc1ccccc1-c1ccc(-c2nc(-c3ccc(CNCCC(=O)O)cc3)no2)cc1C(F)(F)F", -6.76],
  ["CCN(CC(=O)O)Cc1cccc(-c2noc(-c3ccc(-c4ccccc4C)c(COC)c3)n2)c1 [Example 78, hydrochloride salt]", -6.45],
  ["COCc1cc(-c2nc(-c3ccc(CN(C)CC(=O)O)cc3)no2)ccc1-c1ccccc1F [Example 54, hydrochloride salt]", -6.59],
  ["COCc1cc(-c2nc(-c3ccc(CN(C)CC(=O)O)cc3)no2)ccc1-c1cc(F)ccc1C [Example 127, hydrochloride salt]", -6.12],
  ["COCc1cc(-c2nc(-c3ccc(CN(C)CC(=O)O)cc3C(F)(F)F)no2)ccc1-c1ccccc1C", -5.74],
  ["COCc1cc(-c2nc(-c3ccc(CN(C)CC(=O)O)c(F)c3)no2)ccc1-c1cccc(F)c1Cl [Example 121, hydrochloride salt]", -6.28],
  ["COCc1cc(-c2nc(-c3ccc(CN(C)CC(=O)O)c(F)c3F)no2)ccc1-c1ccccc1C [Example 149, hydrochloride salt]", -6.83],
  ["COCc1cc(-c2nc(-c3cccc(COCC(=O)O)c3)no2)ccc1N1CCCCC1C (centres unmarked) [Example 4, hydrochloride salt]", -6.12],
  ["COCc1cc(-c2nc(-c3ccc(CNCC(=O)O)cc3C)no2)ccc1-c1ccccc1C", -6.53],
  ["Cc1ccccc1-c1ccc(-c2nc(-c3cccc(COCC(=O)O)c3)no2)cc1C(F)(F)F", -5.97]
]}

----------
- Test System: S1P3 (Homo sapiens, UniProt Q99500)
- Method: Receptor binding assay, [33P]sphingosine 1-phosphate competition, S1P3 membranes, WGA SPA beads
- Measurement Conditions: 96 well-plate; read-out: S1P3 binding Ki (M) (96 well-plate)
Structures can show the parent of a compound that is named as a salt.
Listed compounds paired with reported log10(Ki)
Recorded Metric: log10(Ki) (log10 of the value in M)

{"columns": ["Compound", "Test System", "log10(Ki)"],
 "data": [
  ["COCc1cc(-c2nc(-c3ccc(CN(C)CCC(=O)O)cc3)no2)ccc1-c1ccccc1C [Example 74, hydrochloride salt]", "S1P3 (Homo sapiens, UniProt Q99500)", -6.97],
  ["COCc1cc(-c2nc(-c3cccc(CN(C)CC(O)CO)c3)no2)ccc1-c1ccccc1C (stereo not shown) [Example 39]", "S1P3 (Homo sapiens, UniProt Q99500)", -6.07],
  ["CCN(CC(=O)O)Cc1cccc(-c2noc(-c3ccc(-c4ccccc4C)c(COC)c3)n2)c1 [Example 78, hydrochloride salt]", "S1P3 (Homo sapiens, UniProt Q99500)", -6.82],
  ["COCc1cc(-c2nc(-c3cc(F)cc(CN(C)CC(=O)O)c3)no2)ccc1-c1ccccc1C [Example 20, hydrochloride salt]", "S1P3 (Homo sapiens, UniProt Q99500)", -7.76],
  ["CCN(CCC(=O)O)Cc1cccc(-c2noc(-c3ccc(-c4ccccc4C)c(COC)c3)n2)c1 [Example 63, hydrochloride salt]", "S1P3 (Homo sapiens, UniProt Q99500)", -7.40],
  ["COCc1cc(-c2nc(-c3cccc(CN(C)CC(=O)O)c3)no2)ccc1-c1cc(F)ccc1C [Example 37, hydrochloride salt]", "S1P3 (Homo sapiens, UniProt Q99500)", -7.20],
  ["COCc1cc(-c2nc(-c3ccc(CN(C)CC(=O)O)c(F)c3)no2)ccc1-c1ccccc1F [Example 55, hydrochloride salt]", "S1P3 (Homo sapiens, UniProt Q99500)", -7.15]
]}
